pIC50: −log10 of the molar value.
List of pIC50 tested on Histone deacetylase 3 (Homo sapiens).
Sequence (O15379 whole entry): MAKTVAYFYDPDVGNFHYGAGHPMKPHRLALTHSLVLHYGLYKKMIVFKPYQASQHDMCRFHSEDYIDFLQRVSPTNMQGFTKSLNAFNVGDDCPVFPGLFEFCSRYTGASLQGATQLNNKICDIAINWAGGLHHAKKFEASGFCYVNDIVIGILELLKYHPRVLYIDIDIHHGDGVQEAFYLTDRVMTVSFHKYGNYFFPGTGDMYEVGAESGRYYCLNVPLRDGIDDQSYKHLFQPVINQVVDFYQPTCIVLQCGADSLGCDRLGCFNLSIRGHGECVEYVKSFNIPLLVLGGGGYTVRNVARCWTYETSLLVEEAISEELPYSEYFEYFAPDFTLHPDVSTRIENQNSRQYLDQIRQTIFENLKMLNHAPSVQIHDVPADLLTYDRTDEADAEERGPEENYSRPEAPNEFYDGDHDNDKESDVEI
Property name: pIC50

> print(dat)
                                 item.smiles                           test.target  experimental.value
 1  O=C1CCC[C@@H](C(=O)N[C@H](CCCCCS)C(=O)Nc2ccccc2)N1  Histone deacetylase 3 (Homo sapiens)                4.77
 2  O=C1CCC[C@@H](C(=O)N[C@@H](CCCCCS)C(=O)NCc2cccc(OCc3ccccc3)c2)N1  Histone deacetylase 3 (Homo sapiens)                6.31
 3  Cc1cccc(NC(=O)[C@H](CCCCCS)NC(=O)[C@@H]2CCCC(=O)N2)c1  Histone deacetylase 3 (Homo sapiens)                9.00
 4  O=C1CCC[C@@H](C(=O)N[C@@H](CCCCCS)C(=O)Nc2ccccc2)N1  Histone deacetylase 3 (Homo sapiens)                8.00
 5  O=C1C[C@@H](C(=O)N[C@@H](CCCCCS)C(=O)Nc2ccccc2)N1  Histone deacetylase 3 (Homo sapiens)                8.10
 6  O=C1NCCC[C@H]1C(=O)N[C@@H](CCCCCS)C(=O)Nc1ccccc1  Histone deacetylase 3 (Homo sapiens)                8.52
 7  Cc1cccc(CCNC(=O)[C@H](CCCCCS)NC(=O)[C@@H]2CCCC(=O)N2)c1  Histone deacetylase 3 (Homo sapiens)                6.91
 8  O=C1CC[C@H](C(=O)N[C@@H](CCCCCS)C(=O)Nc2cccc(C(F)(F)F)c2)N1  Histone deacetylase 3 (Homo sapiens)                7.96
 9  O=C1CC[C@H](C(=O)N[C@H](CCCCCS)C(=O)Nc2ccccc2)N1  Histone deacetylase 3 (Homo sapiens)                6.86
10  O=C1CCC[C@@H](C(=O)N[C@@H](CCCCCS)C(=O)N2CCc3ccccc3C2)N1  Histone deacetylase 3 (Homo sapiens)                5.20
11  CN1C(=O)CCC[C@H]1C(=O)N[C@@H](CCCCCS)C(=O)Nc1ccccc1  Histone deacetylase 3 (Homo sapiens)                8.15
12                Cc1cccc(CCNC(=O)CCCCCCS)c1  Histone deacetylase 3 (Homo sapiens)                5.59
13  O=C1CCC[C@H](C(=O)N[C@@H](CCCCCS)C(=O)Nc2ccccc2)N1  Histone deacetylase 3 (Homo sapiens)                8.22
